Assignment: determine reported ratio to parent for the given variants.
B1: SmBiT-SEC24A [not stated] / LgBiT-SURF4 [not stated] (parent)
chain 1: MSQPGIPASGGAPASLQAQNGAALASGSPYTNGPVQNALLSSQESVSQGYNFQLPGSYPHPIPAKTLNPVSGQSNYGGSQGSGQTLNRPPVASNPVTPSLHSGPAPRMPLPASQNPATTPMPSSSFLPEANLPPPLNWQYNYPSTASQTNHCPRASSQPTVSGNTSLTTNHQYVSSGYPSLQNSFIKSGPSVPPLVNPPLPTTFQPGAPHGPPPAGGPPPVRALTPLTSSYRDVPQPLFNSAVNQEGITSNTNNGSMVVHSSYDEIEGGGLLATPQLTNKNPKMSRSVGYSYPSLPPGYQNTTPPGATGVPPSSLNYPSGPQAFTQTPLGANHLTTSMSGLSLQPEGLRVVNLLQERNMLPSTPLKPPVPNLHEDIQKLNCNPELFRCTLTSIPQTQALLNKAKLPLGLLLHPFKDLVQLPVVTSSTIVRCRSCRTYINPFVSFLDQRRWKCNLCYRVNDVPEEFLYNPLTRVYGEPHRRPEVQNATIEFMAPSEYMLRPPQPPVYLFVFDVSHNAVETGYLNSVCQSLLDNLDLLPGNTRTKIGFITFDSTIHFYGLQESLSQPQMLIVSDIEDVFIPMPENLLVNLNESKELVQDLLKTLPQMFTKTLETQSALGPALQAAFKLMSPTGGRMSVFQTQLPTLGVGALKPREEPNHRSSAKDIHMTPSTDFYKKLALDCSGQQVAVDLFLLSGQYSDLASLGCISRYSAGSVYYYPSYHHQHNPVQVQKLQKELQRYLTRKIGFEAVMRIRCTKGLSIHTFHGNFFVRSTDLLSLPNVNPDAGYAVQMSVEESLTDTQLVSFQSALLYTSSKGERRIRVHTLCLPVVSTLNDVFLGADVQAISGLLANMAVDRSMTASLSDARDALVNAVIDSLSAYRSSVLSNQQPGLMVPFSLRLFPLFVLALLKQKSFQTGTNARLDERIFAMCQVKNQPLVYLMLTTHPSLYRVDNLSDEGALNISDRTIPQPPILQLSVEKLSRDGAFLMDAGSVLMLWVGKNCTQNFLSQVLGVQNYASIPQPMTDLPELDTPESARIIAFISWLREQRPFFPILYVIRDESPMKANFLQNMIEDRTESALSYYEFLLHIQQQVNK
chain 2: MGQNDLMGTAEDFADQFLRVTKQYLPHVARLCLISTFLEDGIRMWFQWSEQRDYIDTTWNCGYLLASSFVFLNLLGQLTGCVLVLSRNFVQYACFGLFGIIALQTIAYSILWDLKFLMRNLALGGGLLLLLAESRSEGKSMFAGVPTMRESSPKQYMQLGGRVLLVLMFMTLLHFDASFFSIVQNIVGTALMILVAIGFKTKLAALTLVVWLFAINVYFNAFWTIPVYKPMHDFLKYDFFQTMSVIGGLLLVVALGPGGVSMDEKKKEW

# Variants of: B1
# ASSAY: NanoBiT
# CONDITION CONTEXT: with LgBiT-SURF4; six technical replicates in each of three independent biological replicates; parent: 1; read off a plot
No unit in the answer, please; the number alone is enough.

What does the record list as ratio to parent for chain 1 K813A ?
0.98

Queued: chain 1 Y437A
0.62

Queued: chain 1 R541A
1

Queued: chain 1 R750A R752A
0.5
